B1: PTPRD (parent)
chain: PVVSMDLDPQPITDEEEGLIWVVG

Variants of: B1
Assay: protein stability index of a GFP-peptide fusion (GPS, HEK-293T) (PSI 1-6); higher = more stable;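 also: lentivirally expressed fusions sorted by FACS into six bins by GFP to DsRed ratio, PSI derived from sequencing read proportions per bin multiplied by bin number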
Details: c terminus: a fixed tail appended
// 0 strictly below 4 in protein stability index; 1 otherwise

Some solved entries appear below for comparison.
mutation-key | group
P11Q | 1
P1N | 0
D8M | 0

Request: Reported protein stability index at or above 4? `P9R`
Response: 0

Request: Assess whether reported protein stability index for `W21D` sits at 4 or higher.
Response: 1
